Data origin: patent EP2711367A1

# system under test: hsMetAP-II (Homo sapiens)
# Sequence (P50579 whole entry): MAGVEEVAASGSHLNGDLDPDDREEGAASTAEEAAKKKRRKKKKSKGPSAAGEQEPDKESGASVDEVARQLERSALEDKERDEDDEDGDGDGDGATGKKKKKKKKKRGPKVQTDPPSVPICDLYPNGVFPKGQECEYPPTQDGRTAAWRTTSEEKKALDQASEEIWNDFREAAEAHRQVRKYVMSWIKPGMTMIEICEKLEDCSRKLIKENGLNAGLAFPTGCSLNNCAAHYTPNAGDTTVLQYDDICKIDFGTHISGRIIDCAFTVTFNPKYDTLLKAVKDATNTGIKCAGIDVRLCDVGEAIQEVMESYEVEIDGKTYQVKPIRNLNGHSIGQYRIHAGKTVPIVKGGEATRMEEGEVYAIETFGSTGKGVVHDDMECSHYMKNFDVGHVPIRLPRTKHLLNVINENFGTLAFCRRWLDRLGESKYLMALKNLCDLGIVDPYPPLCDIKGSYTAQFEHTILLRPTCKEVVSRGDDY
# protocol details: MetAP inhibitory activity, Met-Gly-Met-Met substrate, HPLC detection of Gly-Met-Met
# Type: biochemical, hs
# run conditions: single concentration: inhibitor 25 µM, enzyme 50 nM, 60 minutes substrate incubation at 37 °C
metric name: hsMetAP-II % inhibition

[[record]]
compound = "Cn1cnc2c1C1(CCC2=O)CO1 (racemic)"
metric_name = "hsMetAP-II % inhibition"
data_value = "Inactive"

[[record]]
compound = "COc1ccc(Cn2nnc3c2C2(CCC3OC(=O)Nc3ccccc3)CO2)cc1 (racemic) [UWU-XII-149-A]"
metric_name = "hsMetAP-II % inhibition"
data_value = "100%"

[[record]]
compound = "Cn1nnc2c1C1(CCC2=O)CO1 (racemic)"
metric_name = "hsMetAP-II % inhibition"
data_value = "Inactive"

[[record]]
compound = "CC(C)CCn1cnc2c1C1(CCC2=O)CO1 (centres unmarked)"
metric_name = "hsMetAP-II % inhibition"
data_value = "Inactive"

[[record]]
compound = "CCn1cnc2c1C1(CCC2=O)CO1 (centres unmarked)"
metric_name = "hsMetAP-II % inhibition"
data_value = "Inactive"

[[record]]
compound = "COc1ccc(Cn2nnc3c2C2(CCC3OC(=O)Nc3ccccc3)CO2)cc1 (racemic) [UWU-XIII-005-A]"
metric_name = "hsMetAP-II % inhibition"
data_value = "44 ± 6%"

[[record]]
compound = "CCn1nnc2c1C1(CCC2=O)CO1 (centres unmarked)"
metric_name = "hsMetAP-II % inhibition"
data_value = "Inactive"

[[record]]
compound = "CCCn1cnc2c1C1(CCC2=O)CO1 (racemic)"
metric_name = "hsMetAP-II % inhibition"
data_value = "Inactive"


* * *

# system under test: UniProtKB P0AE18
# protocol details: MetAP inhibitory activity, Met-Gly-Met-Met substrate, HPLC detection of Gly-Met-Met
# Assay type: biochemical
# run conditions: read-out: E. Coli % inhibition
metric name: inhibition at 25 µM (%)

[[record]]
compound = "O=C(O[C@@H]1CC[C@@]2(CO2)c2c1nnn2Cc1ccccc1)c1ccccc1 (racemic) [JL-III-147-B]"
data_value = 36

[[record]]
compound = "CC(C)NC(=O)O[C@@H]1CC[C@@]2(CO2)c2c1nnn2Cc1ccccc1 (racemic) [UWU-XII-128-C]"
data_value = 18

[[record]]
compound = "CC(C)c1ccc(Cn2nnc3c2[C@]2(CC[C@H]3OC(=O)c3ccccc3)CO2)cc1 (racemic) [UWU-XII-036-A]"
data_value = 20

[[record]]
compound = "COc1ccc(Cn2nnc3c2C2(CCC3OC(=O)NCC(C)C)CO2)cc1 (racemic) [UWU-XII-142-A]"
data_value = 18.7

[[record]]
compound = "CCn1nnc2c1C1(CCC2=O)CO1 (stereo not shown) [CJ-II-007]"
data_value = 22

[[record]]
compound = "O=C(O[C@@H]1CC[C@]2(CO2)c2c1nnn2Cc1ccccc1)c1ccccc1 (racemic) [JL-III-147-A]"
data_value = 45

[[record]]
compound = "O=C1CCC2(CO2)c2c1nnn2CC1CCCCC1 (stereo not shown) [BK-I-177-A]"
data_value = 19


* * *

# system under test: UniProt P50579
# protocol details: MetAP inhibitory activity, Met-Gly-Met-Met substrate, HPLC detection of Gly-Met-Met
# Assay type: biochemical, hs
# run conditions: single concentration: inhibitor 25 µM, enzyme 50 nM, 60 minutes substrate incubation at 37 °C; read-out: hsMetAP-II % inhibition
# Description: The below protocol describes the measurement of the inhibitory activity of the compounds of the present invention by using E. coli MetAP, hsMetAP-I, and hsMetAP-II. […] Percentage inhibition was calculated as the relation of Gly-Met-Met amount resulting in inhibited and uninhibited enzyme reaction (positive control). […] The values were determined in relation to positive controls with equal DMSO contents. […]
Listed below: inhibition at 25 µM values for each entry.
metric name: inhibition at 25 µM

[[record]]
molecule = "CCCCCCCCn1nnc2c1C1(CCC2=O)CO1 (stereo not drawn) [CJ-II-010]"
data_value = "50%"

[[record]]
molecule = "O=C1CCC2(CO2)c2c1nnn2Cc1ccc2ccccc2c1 (stereo not drawn) [HHS-I-020-C]"
data_value = "84.1%"

[[record]]
molecule = "O=C1CCC2(CO2)c2c1nnn2Cc1ccc(F)cc1 (stereo not drawn) [BK-I-178-A]"
data_value = "100%"

[[record]]
molecule = "COc1ccc(Cn2nnc3c2C2(CCC3=O)CO2)cc1 (stereo not drawn) [HHS-I-028-B]"
data_value = "97%"

[[record]]
molecule = "CC(C)Cn1cnc2c1C1(CCC2=O)CO1 (stereo not drawn) [JL-II-120-B]"
data_value = "12%"

[[record]]
molecule = "O=C1CCC2(CO2)c2c1nnn2Cc1ccc(Cl)cc1 (stereo not drawn) [BK-I-184-A]"
data_value = "100%"


* * *

Listed below: inhibition at 25 µM values for each entry.
# system under test: E. coli MetAP (Escherichia coli)
# Sequence (P0AE18 whole entry): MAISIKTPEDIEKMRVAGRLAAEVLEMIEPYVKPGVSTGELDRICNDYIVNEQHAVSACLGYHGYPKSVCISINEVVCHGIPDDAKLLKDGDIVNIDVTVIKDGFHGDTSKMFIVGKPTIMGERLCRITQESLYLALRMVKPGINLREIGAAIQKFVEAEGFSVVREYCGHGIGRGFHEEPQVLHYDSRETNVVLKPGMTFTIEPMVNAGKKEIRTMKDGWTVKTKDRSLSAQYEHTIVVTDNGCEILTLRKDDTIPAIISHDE
# protocol details: MetAP inhibitory activity, Met-Gly-Met-Met substrate, HPLC detection of Gly-Met-Met
# Type: biochemical
# run conditions: read-out: E. Coli % inhibition
metric name: inhibition at 25 µM

[[record]]
molecule = "COc1ccc(Cn2nnc3c2C2(CCC3OC(=O)NCC(N)=O)CO2)cc1 (stereo not shown)"
system_under_test = "E. coli MetAP (Escherichia coli)"
metric_name = "inhibition at 25 µM"
data_value = "12%"

[[record]]
molecule = "Cn1nnc2c1C1(CCC2=O)CO1 (racemic)"
system_under_test = "E. coli MetAP (Escherichia coli)"
metric_name = "inhibition at 25 µM"
data_value = "20%"

[[record]]
molecule = "O=C1CCC2(CO2)c2c1nnn2Cc1ccc(F)cc1 (stereo not shown)"
system_under_test = "E. coli MetAP (Escherichia coli)"
metric_name = "inhibition at 25 µM"
data_value = "13%"

[[record]]
molecule = "O=C1CCC2(CO2)c2c1nnn2Cc1ccc2ccccc2c1 (stereo not shown)"
system_under_test = "E. coli MetAP (Escherichia coli)"
metric_name = "inhibition at 25 µM"
data_value = "24%"

[[record]]
molecule = "CC(C)CCn1cnc2c1C1(CCC2=O)CO1 (stereo not shown)"
system_under_test = "E. coli MetAP (Escherichia coli)"
metric_name = "inhibition at 25 µM"
data_value = "25%"

[[record]]
molecule = "CCCCCCCCn1nnc2c1C1(CCC2=O)CO1 (stereo not shown)"
system_under_test = "E. coli MetAP (Escherichia coli)"
metric_name = "inhibition at 25 µM"
data_value = "14%"

[[record]]
molecule = "O=C1CCC2(CO2)c2c1nnn2Cc1ccc(Cl)cc1 (stereo not shown)"
system_under_test = "E. coli MetAP (Escherichia coli)"
metric_name = "inhibition at 25 µM"
data_value = "14%"

[[record]]
molecule = "CC(C)c1ccc(Cn2nnc3c2C2(CCC3=O)CO2)cc1 (stereo not shown)"
system_under_test = "E. coli MetAP (Escherichia coli)"
metric_name = "inhibition at 25 µM"
data_value = "50%"

[[record]]
molecule = "O=C(O[C@@H]1CC[C@]2(CO2)c2c1nnn2Cc1ccc2ccccc2c1)c1ccccc1 (racemic)"
system_under_test = "E. coli MetAP (Escherichia coli)"
metric_name = "inhibition at 25 µM"
data_value = "22%"

[[record]]
molecule = "CC(C)NC(=O)O[C@@H]1CC[C@]2(CO2)c2c1nnn2Cc1ccccc1 (racemic)"
system_under_test = "E. coli MetAP (Escherichia coli)"
metric_name = "inhibition at 25 µM"
data_value = "24%"


* * *

# system under test: hsMetAP-I (Homo sapiens, UniProt P53582)
# protocol details: MetAP inhibitory activity, Met-Gly-Met-Met substrate, HPLC detection of Gly-Met-Met
# Format: biochemical, hs
# run conditions: single concentration: inhibitor 25 µM, enzyme 50 nM, 15 minutes substrate incubation at 37 °C
metric name: hsMetAP-I % inhibition

[[record]]
molecule = "O=C1CCC2(CO2)c2c1ncn2Cc1ccccc1 (stereo not drawn) [JL-III-084-C]"
system_under_test = "hsMetAP-I (Homo sapiens, UniProt P53582)"
data_value = "Inactive"

[[record]]
molecule = "COc1ccc(Cn2nnc3c2C2(CCC3OC(=O)NCC(C)C)CO2)cc1 (racemic) [UWU-XII-142-A]"
system_under_test = "hsMetAP-I (Homo sapiens, UniProt P53582)"
data_value = "Inactive"

[[record]]
molecule = "CC(C)NC(=O)O[C@@H]1CC[C@]2(CO2)c2c1nnn2Cc1ccccc1 (racemic) [UWU-XII-128-A]"
system_under_test = "hsMetAP-I (Homo sapiens, UniProt P53582)"
data_value = "Inactive"

[[record]]
molecule = "COc1ccc(Cn2nnc3c2C2(CCC3OC(=O)Nc3ccccc3)CO2)cc1 (racemic) [UWU-XII-149-A]"
system_under_test = "hsMetAP-I (Homo sapiens, UniProt P53582)"
data_value = "Inactive"

[[record]]
molecule = "Cn1cnc2c1C1(CCC2=O)CO1 (racemic) [JL-II-136-A]"
system_under_test = "hsMetAP-I (Homo sapiens, UniProt P53582)"
data_value = "Inactive"

[[record]]
molecule = "CC(C)NC(=O)O[C@@H]1CC[C@@]2(CO2)c2c1nnn2Cc1ccccc1 (racemic) [UWU-XII-128-C]"
system_under_test = "hsMetAP-I (Homo sapiens, UniProt P53582)"
data_value = "Inactive"

[[record]]
molecule = "CCn1cnc2c1C1(CCC2=O)CO1 (stereo not drawn) [JL-II-137-A]"
system_under_test = "hsMetAP-I (Homo sapiens, UniProt P53582)"
data_value = "Inactive"

[[record]]
molecule = "O=C1CCC2(CO2)c2c1nnn2Cc1ccc2ccccc2c1 (stereo not drawn) [HHS-I-020-C]"
system_under_test = "hsMetAP-I (Homo sapiens, UniProt P53582)"
data_value = "Inactive"

[[record]]
molecule = "CC(C)CCn1cnc2c1C1(CCC2=O)CO1 (stereo not drawn) [JL-II-115-A]"
system_under_test = "hsMetAP-I (Homo sapiens, UniProt P53582)"
data_value = "Inactive"

